Assignment: determine reported IC50 for the given compounds.
- Test system: K562
- PROCEDURE SUMMARY: Antiproliferative activity in human K562 cells after 48 hrs by MTT assay
- Type: functional, cell-based
- ASSAY CONDITIONS: K562, 48 h
Give bare numbers, in nM.

Oc1cc2ccc1-c1c(ccc(CN3CCSCC3)c1O)CCc1ccc(cc1)Oc1cc(cc(CN3CCSCC3)c1O)CC2 ... 8350

I'm hoping you can list IC50 for every compound here, please.
1. CCN(CC)Cc1cc2cc(c1O)Oc1ccc(cc1)CCc1ccc(CN(CC)CC)c(O)c1-c1ccc(cc1O)CC2
2. CN(C)Cc1cc2cc(c1O)Oc1ccc(cc1)CCc1ccc(CN(C)C)c(O)c1-c1ccc(cc1O)CC2
3. CN(C)CCCOc1cccc2c1-c1ccc(cc1O)CCc1ccc(O)c(c1)Oc1ccc(cc1)CC2
4. CN(CCO)Cc1ccc2c(c1O)-c1ccc(cc1O)CCc1ccc(O)c(c1)Oc1ccc(cc1)CC2
5. CN1CCN(Cc2ccc3c(c2O)-c2ccc(cc2O)CCc2ccc(O)c(c2)Oc2ccc(cc2)CC3)CC1
6. Oc1ccc2cc1Oc1ccc(cc1)CCc1cccc(OCCN3CCCCCC3)c1-c1ccc(cc1O)CC2
7. CN(C)CCOc1cccc2c1-c1ccc(cc1O)CCc1ccc(O)c(c1)Oc1ccc(cc1)CC2

[1860, 2840, 2610, 9190, 3310, 2730, 1560]
